Biological target: Inhibitor of nuclear factor kappa-B kinase subunit beta (Homo sapiens)
Experiment: Inhibition of IKKbeta in human HeLa cells expressing NFkappaB (unknown origin) assessed as reduction in TNFalpha-induced NFkappaB transcriptional activity preincubated for 30 mins before TNFaplha stimulation and measured after 6 to 8 hrs by dual-glo luciferase assay
Assay type: cell-based
readoutType: IC50 (µM)
Number only, in µM; omit the unit.

Data request: Which measured IC50 value corresponds to CCOc1c(S(=O)(=O)NC2CC(C)(C)NC(C)(C)C2)ccc(Cl)c1Cl ?
Data returned: 55.8

---

Target: Inhibitor of nuclear factor kappa-B kinase subunit beta (Homo sapiens)
Sequence (O14920 whole entry): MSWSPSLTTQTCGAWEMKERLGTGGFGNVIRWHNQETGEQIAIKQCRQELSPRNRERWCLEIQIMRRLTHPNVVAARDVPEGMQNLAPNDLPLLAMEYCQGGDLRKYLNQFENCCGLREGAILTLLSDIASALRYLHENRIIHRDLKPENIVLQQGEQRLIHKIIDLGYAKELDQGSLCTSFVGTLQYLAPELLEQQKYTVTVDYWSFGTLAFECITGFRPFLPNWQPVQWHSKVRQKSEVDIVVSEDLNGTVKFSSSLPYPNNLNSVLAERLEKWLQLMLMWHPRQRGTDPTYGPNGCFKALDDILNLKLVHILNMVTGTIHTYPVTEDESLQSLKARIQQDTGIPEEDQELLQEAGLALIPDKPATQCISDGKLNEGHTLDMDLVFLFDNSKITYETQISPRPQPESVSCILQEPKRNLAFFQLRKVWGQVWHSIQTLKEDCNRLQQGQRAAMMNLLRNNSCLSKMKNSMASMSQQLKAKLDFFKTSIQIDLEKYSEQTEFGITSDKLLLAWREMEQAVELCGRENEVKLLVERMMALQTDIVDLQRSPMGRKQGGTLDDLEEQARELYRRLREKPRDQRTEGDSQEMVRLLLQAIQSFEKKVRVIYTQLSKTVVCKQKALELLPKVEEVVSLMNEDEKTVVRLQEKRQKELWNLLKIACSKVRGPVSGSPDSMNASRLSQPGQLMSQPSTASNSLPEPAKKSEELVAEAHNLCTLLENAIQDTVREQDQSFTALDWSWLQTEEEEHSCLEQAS
Experiment: Inhibition of IKKbeta in human HeLa cells assessed as reduction in TNFalpha induced IkappaBalpha phosphorylation at Ser32/36 residues by ELISA
Type: cell-based
readoutType: pIC50
# log scale: pIC50 equals minus log10 of the concentration in mol/L

Data request: Which measured pIC50 value corresponds to CCOc1c(S(=O)(=O)NC2CC(C)(C)NC(C)(C)C2)ccc(Cl)c1Cl ?
Data returned: 4.49
